The origin of these recorded values is the supplement of paper PMC4862054.

# Test system: BT-474
# PROTOCOL: normalised response (% of control), CellTiter-Glo; higher = more viable cells (100 = DMSO, 0 = benzethonium chloride kill control)
# EXPERIMENTAL CONDITIONS: incubation time: 72 h
REPORTED ENDPOINT: normalised response (%)

Nc1nccc(-c2c(-c3ccc(F)cc3)ncn2C2CCCCC2)n1 (10000 nM) ... 83.6
CC(=O)O[C@H]1C(=O)[C@@]2(C)[C@H]([C@H](OC(=O)c3ccccc3)[C@]3(O)C[C@H](OC(=O)[C@H](O)[C@@H](NC(=O)c4ccccc4)c4ccccc4)C(C)=C1C3(C)C)[C@]1(OC(C)=O)CO[C@@H]1C[C@@H]2O [Paclitaxel] (1000 nM) ... 29.5
Cc1cc(C(C)Nc2ccccc2)c2nc(N3CCOCC3)cc(=O)n2c1 (centres undefined) [TGX-221] (10000 nM) ... 70.9
CCCC(CCC)C(=O)O [Valproic acid] (1000000 nM) ... 100
C[C@@]1(C(=O)Nc2ccc(F)nc2)CCCN1c1nc(Nc2cc(C3CC3)n[nH]2)c2cccn2n1 (10000 nM) ... 29.8
COc1ccc(C2=N[C@@H](c3ccc(Cl)cc3)[C@@H](c3ccc(Cl)cc3)N2C(=O)N2CCNC(=O)C2)c(OC(C)C)c1 [Nutlin-3] (10000 nM) ... 93.3
COC1=CC(c2cc3ccccc3[nH]2)=N/C1=C\c1[nH]c(C)cc1C [Obatoclax] (10000 nM) ... 70.5
COc1c(C)cnc(Cn2cnc3c(Cl)nc(N)nc32)c1C [BIIB021] (10000 nM) ... 27.5
COc1ncc(-c2ccc3nccc(-c4ccnnc4)c3c2)cc1NS(=O)(=O)c1ccc(F)cc1F (1000 nM) ... 43
